- Tested on: U2OS
- measurement-notes: cell viability relative to DMSO; higher = less toxic
- condition-info: 72 h; 100 nM
Counter-ions that a name gives are not always drawn.
For each of the molecules below, state its cell viability.
Reply with a number, then the unit it belongs to.

In the examples that follow, each entry is paired with its recorded cell viability.
CCN(CC)C(=O)N[C@H]1C=C2c3cccc4[nH]cc(c34)C[C@H]2N(C)C1 [lisuride] : 100%
O=C1CC[C@@]2(O)[C@H]3Cc4ccc(O)c5c4[C@@]2(CCN3CC2CC2)[C@H]1O5 [NALTREXONE HYDROCHLORIDE] : 99.8%
Nc1nc2cc(-c3ccc4ncc(C(=O)N5CCOCC5)n4c3)ccc2o1 [MLN1117] : 106%
CC1(C)CC[C@]2(C(=O)O)CC[C@]3(C)C(=CC[C@@H]4[C@@]5(C)CC[C@H](O)C(C)(C)[C@@H]5CC[C@]43C)[C@@H]2C1 [oleanolic-acid] : 94.4%
C#C[C@]1(O)CC[C@H]2[C@@H]3CCC4=CC(=O)CCC4=C3C=C[C@@]21CC [gestrinone] : 91.6%

Hi! Can you tell me cell viability for each of these molecules?
1. Nc1nc(Cl)nc2c1ncn2[C@@H]1O[C@H](CO)[C@@H](O)[C@@H]1F [clofarabine]
2. CCOC(=O)[C@H](Cc1ccccc1)NC(=O)c1cc(Cl)c(OCCN2CCN(C)CC2)c(Cl)c1O [JTE-607]

105%
95.7%

* * *

- Tested on: HepG2
- measurement-notes: cell viability relative to DMSO; higher = less toxic
- condition-info: 72 h; 100 nM
For each of the molecules below, state its cell viability.
Numbers only, in %.

In the examples that follow, each entry is paired with its recorded cell viability.
N=C1NC(=O)/C(=C/c2ccc(O)cc2)S1 [mirin] : 95.2
Cc1c(C(=O)NC2CCCCC2)sc2nc3ccc(N)cc3n12 : 92.8

Hi! Can you tell me cell viability for each of these molecules?
1. COCCN1CCC(C(=O)NO)(S(=O)(=O)c2ccc(Oc3ccc(OC(F)(F)F)cc3)cc2)CC1 [SD-2590]
2. O=C(c1ccc(F)cc1)C1CCN(CCn2c(=S)[nH]c3ccccc3c2=O)CC1 [altanserin]
3. C[C@H](CCC(=O)O)[C@H]1CC[C@H]2[C@@H]3C[C@H](O)[C@@H]4C[C@H](O)CC[C@]4(C)[C@H]3CC[C@]12C [Hyodeoxycholic acid (HDCA)]
4. CC(=O)OCC(=O)[C@@]1(O)CC[C@H]2[C@@H]3CCC4=CC(=O)C=C[C@]4(C)[C@@]3(Cl)[C@@H](Cl)C[C@@]21C [dichlorisone-acetate]
5. Oc1nc(O)c2cn[nH]c2n1 [oxypurinol]

93.9
88.2
104
99
104

// molecule C=CC(=O)Nc1cccc(Nc2nc(Nc3ccc(Oc4ccnc(C(=O)NC)c4)cc3)ncc2F)c1 [CNX-774] , assay HepG2, cell viability value: 110

* * *

For each of the compounds below, state its cell viability.
- Tested on: U2OS
- measurement-notes: cell viability relative to DMSO; higher = less toxic
- condition-info: 72 h; 10000 nM
One number for each entry, in %.

In the examples that follow, each entry is paired with its recorded cell viability.
Cc1nc2ccccc2n1Cc1ccc(Cl)cc1 : 95.8
C=CC(=O)Nc1cccc(Nc2nc(Nc3ccc(Oc4ccnc(C(=O)NC)c4)cc3)ncc2F)c1 : 32.9
Cc1ccc2cc(-c3c(C)ccc(C(=O)c4c(-c5ccccc5)n(C)n(-c5ccccc5)c4=O)c3N)ccc2n1 : 101
CCOc1cc(C=O)ccc1O : 99.9
C1CCC(NC2CCCCC2)CC1 : 97.7

Hi! Can you tell me cell viability for each of these compounds?
1. CC(C)(C#N)c1cc(Cn2cncn2)cc(C(C)(C)C#N)c1
2. COc1cc(OC)c(OC)cc1C=O
3. Oc1cccc(Nc2ncc(F)c(Nc3cccc(O)c3)n2)c1

[113, 99, 30.2]
